B1: FERM and PDZ domain-containing protein 4, residues 75 to 154; numbered along this chain, Q14CM0 (parent)
chain: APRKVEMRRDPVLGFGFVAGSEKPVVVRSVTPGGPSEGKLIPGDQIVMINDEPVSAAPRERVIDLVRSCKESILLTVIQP

variants of: B1; test: abundance fitness (aPCA) (normalised: wild type 0, dead -1); higher = more abundant; growth selection in yeast, the domain comes from the species named; conditions: Homo sapiens
quantity-kind: abundance fitness
// no unit string in output, number only

# input variant: `V18D` ; wanted: its abundance fitness
-0.055

What would you report for `A19F` ?
-0.016

What would you report for `S21F` ?
-0.021

What would you report for `P2F` ?
-0.012

What would you report for `E71K` ?
0

What would you report for `D51V` ?
-0.385

What would you report for `N50K` ?
-0.223

What would you report for `V66K` ?
-0.692

What would you report for `M7N` ?
-1.07

What would you report for `L65E` ?
-0.249

What would you report for `F15M` ?
-0.392

What would you report for `P42M` ?
-0.154

What would you report for `G34F` ?
-0.765
